Form field: self-aminoacylation (one value per entry).
system: biotinyl-Leu-oxazolone; assay: self-aminoacylation, catalytic enhancement (BLO) (fold over background); higher = more active; k-Seq, kA / k0A0; sequences stand for … in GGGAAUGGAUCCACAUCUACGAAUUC…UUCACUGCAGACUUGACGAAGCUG
Variants at the floor of the assay were thinned out.
Please give the numeric answer without any surrounding text.

[[record]]
residue_sequence = "GCGCACUUCAAGCAAUCGGUC [Fam1B.1 aminoacylation ribozyme variant]"
metric = "self-aminoacylation"
value_observed = 2.65


stdin: // map AUUCACCAAGGUCGUCGGGUG [Fam2.2 aminoacylation ribozyme variant] to recorded self-aminoacylation (system: biotinyl-Leu-oxazolone)
stdout: 3.05

stdin: // map AUUACCCUGGUCAACGAGUGA [Fam2.1 aminoacylation ribozyme variant] to recorded self-aminoacylation (system: biotinyl-Leu-oxazolone)
stdout: 5.99

stdin: // map CUAAUUCAAACAAUCGGUUUG [Fam1A.1 aminoacylation ribozyme variant] to recorded self-aminoacylation (system: biotinyl-Leu-oxazolone)
stdout: 0.696

====

system: biotinyl-Met-oxazolone; assay: self-aminoacylation, catalytic enhancement (BMO) (fold over background); higher = more active; k-Seq, kA / k0A0; sequences stand for … in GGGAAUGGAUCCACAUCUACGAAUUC…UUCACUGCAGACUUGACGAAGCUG
Fewer inactive variants are shown than the library holds.
Metric: self-aminoacylation
Please give the numeric answer without any surrounding text.

Some entries whose results are on file:
[[record]]
residue_sequence = "UUACUUCAAACAAUCGGUAUG [Fam1A.1 aminoacylation ribozyme variant]"
value_observed = 1.02

[[record]]
residue_sequence = "UUUCACCUGGGUCAUCGGGUG [Fam2.2 aminoacylation ribozyme variant]"
value_observed = 5.12

[[record]]
residue_sequence = "AAGUUUGAUAAGAGUCGCAAG [Fam3.1 aminoacylation ribozyme variant]"
value_observed = 1.06

[[record]]
residue_sequence = "AAGUUUGCUAAUAGACGCUAG [Fam3.1 aminoacylation ribozyme variant]"
value_observed = 0.754

[[record]]
residue_sequence = "AUUAUCCUGGUAAUCGAGUGA [Fam2.1 aminoacylation ribozyme variant]"
value_observed = 13.3

[[record]]
residue_sequence = "CCACACUGCAAGAAAUCGGUC [Fam1B.1 aminoacylation ribozyme variant]"
value_observed = 1.12

[[record]]
residue_sequence = "AAAUUUGGUAAUAGUCGCAAG [Fam3.1 aminoacylation ribozyme variant]"
value_observed = 1.88

[[record]]
residue_sequence = "CCACACUUCAAGUGAUCGGUC [Fam1B.1 aminoacylation ribozyme variant]"
value_observed = 1.1

[[record]]
residue_sequence = "CAGUUUGCUAAUAGUAGCAAG [Fam3.1 aminoacylation ribozyme variant]"
value_observed = 1.58

[[record]]
residue_sequence = "CUAUUUCAAACAAUCAGUCUG [Fam1A.1 aminoacylation ribozyme variant]"
value_observed = 0.721


stdin: Any idea what its self-aminoacylation is? The sequence is CCAGACUUCAAGCAAUCGAUC [Fam1B.1 aminoacylation ribozyme variant]
stdout: 0.559

stdin: Any idea what its self-aminoacylation is? The sequence is CGACUACAAACAAUCGGUCUG [Fam1A.1 aminoacylation ribozyme variant]
stdout: 1.22

stdin: Any idea what its self-aminoacylation is? The sequence is CCACACGUCAAGAAAUCGGUC [Fam1B.1 aminoacylation ribozyme variant]
stdout: 1.17

stdin: Any idea what its self-aminoacylation is? The sequence is AUCCACCUAGGUCAUUGGGUG [Fam2.2 aminoacylation ribozyme variant]
stdout: 3.76

stdin: Any idea what its self-aminoacylation is? The sequence is AUUCACGUACGUCAUCGGGUG [Fam2.2 aminoacylation ribozyme variant]
stdout: 12.2

stdin: Any idea what its self-aminoacylation is? The sequence is CUACUUCAAACCAUCCGUCUG [Fam1A.1 aminoacylation ribozyme variant]
stdout: 0.891

stdin: Any idea what its self-aminoacylation is? The sequence is CCACACUUCAGGCAACCGGUC [Fam1B.1 aminoacylation ribozyme variant]
stdout: 1.61

stdin: Any idea what its self-aminoacylation is? The sequence is CUACCUCAAACAAUCGCUCUG [Fam1A.1 aminoacylation ribozyme variant]
stdout: 0.85

stdin: Any idea what its self-aminoacylation is? The sequence is AUUACCGUGGUAAUCGAGUGA [Fam2.1 aminoacylation ribozyme variant]
stdout: 8.54
